EC50 for assorted molecules
- STUDY TARGET: UniProtKB P09923
- TEST DESCRIPTION: activation of human intestinal alkaline phosphatase – biochemical, dose response (AID 488873)
- Format: functional
The source made the active and inactive calls.

Sample records with EC50:
> print(dat)
                                   molecule      endpoint.result
1  O=C(CSc1nc2ccccc2o1)N/N=C/c1ccc(O)c(O)c1       63 µM (active)
2  COc1cccc(C(C)NC(=O)Nc2cccc(C(F)(F)F)c2)c1 (centres undefined)  > 100 µM (inactive)

Reported EC50 for NNC(=O)c1cc(O)c(O)c(O)c1 was 82.6 µM (active)

EC50 reading for O=C1C=C(O)c2c(O)cc(O)c(O)c2C1=O : > 100 µM (inactive)

----------
- STUDY TARGET: Alkaline phosphatase, tissue-nonspecific isozyme (Homo sapiens)
- TEST DESCRIPTION: potency against alkaline phosphatase TNAP – biochemical, luminescent, dose response, SAR follow-up (AID 1056)
Activity calls are given as the source filed them.
RECORDED ENDPOINT: IC50

# count of solved cases: 3
> print(dat)
                                        mol      endpoint.result
1          Cc1cc(C)nc(SCC(=O)c2ccc(O)cc2)n1  > 100 µM (inactive)
2          COc1ccc(OC)c(CNc2cnc3ccccc3c2)c1  > 100 µM (inactive)
3  CC(C)CNC(=O)c1cc(-c2cc(F)c(Cl)cc2Cl)n[nH]1     0.27 µM (active)

Now look at this entry.
Consider O=S(=O)(Nc1ccc2ccccc2c1)c1cc(Cl)ccc1F . Its measured IC50 is > 10 µM (inactive)

----------
- STUDY TARGET: Hexokinase HKDC1 (Homo sapiens, UniProt Q2TB90)
- TEST DESCRIPTION: inhibition of HKDC1 glucose phosphorylation – biochemical, W721R variant, dose response (AID 504729)
- Format: functional
Activity calls are given as the source filed them.
Reply using exactly one outcome from active, inactive

Examples from the recorded data:
> print(dat)
                                   compound  discrete.label
1  C=CCN1C=C2C(=O)C(C)(OC(=O)CCC(=O)OC)C(=O)C(Br)=C2C=C1c1ccc(OC)cc1 (centres undefined)        inactive
2  CC(=O)N(C1=C(Cl)C(=O)c2ccccc2C1=O)c1ccc(C(=O)O)cc1          active
3  COc1cc(/C=C2/C(=O)NN(c3ccc(Cl)c(Cl)c3)C2=O)cc([N+](=O)[O-])c1O        inactive

# ---- query compound ----
**Query** // return assay outcome for Cc1cc(C(F)F)n2ncc(C(=O)NCCc3ccc(Cl)cc3)c2n1
**Result** active

----------
- STUDY TARGET: Heat shock factor protein 1 (Mus musculus, UniProt P38532)
- Sequence (P38532 whole entry): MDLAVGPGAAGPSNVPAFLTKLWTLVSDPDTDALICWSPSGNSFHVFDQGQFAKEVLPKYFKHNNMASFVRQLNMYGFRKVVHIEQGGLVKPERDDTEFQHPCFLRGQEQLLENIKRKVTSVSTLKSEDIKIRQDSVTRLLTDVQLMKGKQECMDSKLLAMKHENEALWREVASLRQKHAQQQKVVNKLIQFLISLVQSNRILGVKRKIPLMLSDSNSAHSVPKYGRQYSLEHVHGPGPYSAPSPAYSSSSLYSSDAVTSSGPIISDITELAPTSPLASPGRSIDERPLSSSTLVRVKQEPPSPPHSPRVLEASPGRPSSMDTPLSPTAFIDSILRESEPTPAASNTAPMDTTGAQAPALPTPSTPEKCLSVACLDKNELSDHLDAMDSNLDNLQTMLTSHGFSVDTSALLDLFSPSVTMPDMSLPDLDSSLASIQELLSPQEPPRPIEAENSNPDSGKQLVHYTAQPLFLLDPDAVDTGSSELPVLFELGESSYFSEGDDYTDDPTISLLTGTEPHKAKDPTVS
- TEST DESCRIPTION: decrease of HSF1-responsive luciferase luminescence – cell-based, NIH3T3, dose retest, confirmation (AID 2382);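 also: NIH3T3 fibroblasts with HSF1-driven luciferase reporter stressed by proteasome inhibitor MG132; luminescence from HSF1-driven luciferase expression after 8 hours of MG132 stress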
- Assay type: functional
Active and inactive are the calls of the source.
RECORDED ENDPOINT: EC50

> print(dat)
                                       mol        endpoint.result
1    CC(C)(C)C(=O)Nc1ccc(NC(=O)c2ccco2)nc1     < 0.16 µM (active)
2  COC(=O)c1ccc2nc(Nc3nc4ccc(F)cc4s3)sc2c1     < 0.16 µM (active)
3        O=C(NCc1ccc(C(=O)O)cc1)OCc1ccccc1  > 195 µM (not active)

Summary for this compound, Cc1ccc(S(=O)(=O)CCC(=O)Nc2ccc(Br)cc2)cc1 : EC50 is > 195 µM (not active)

Data point: COc1cc(OC)cc(-c2cc(N3C(=O)Nc4ccccc4N3O)[nH]n2)c1 ; EC50 = 73.7 µM (active)

Note to self: EC50 recorded for Cc1ccc(S(=O)(=O)CC(=O)Nc2ccc(S(=O)(=O)Nc3onc(C)c3C)cc2)cc1 was > 195 µM (not active)

Reference for the values: ChEMBL document CHEMBL1201862
